Listed next: entries and their corresponding EC50 GlucR, CRE luciferase reporter gene assay in BHK cells.
# study system: human glucagon receptor (human, UniProt P47871 26-477)
# Sequence (P47871 26-477): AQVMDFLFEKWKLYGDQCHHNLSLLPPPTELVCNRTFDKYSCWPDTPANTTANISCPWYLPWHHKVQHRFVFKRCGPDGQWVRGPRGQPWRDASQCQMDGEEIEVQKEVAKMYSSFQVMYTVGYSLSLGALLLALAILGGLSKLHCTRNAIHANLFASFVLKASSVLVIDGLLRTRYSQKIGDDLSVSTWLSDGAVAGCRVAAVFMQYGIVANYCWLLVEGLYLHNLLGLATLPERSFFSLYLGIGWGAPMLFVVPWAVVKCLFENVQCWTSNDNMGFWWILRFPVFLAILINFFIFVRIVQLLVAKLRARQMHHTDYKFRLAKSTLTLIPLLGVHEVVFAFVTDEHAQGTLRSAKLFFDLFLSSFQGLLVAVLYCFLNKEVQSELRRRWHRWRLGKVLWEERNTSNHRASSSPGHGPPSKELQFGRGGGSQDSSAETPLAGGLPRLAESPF
# method description: cell-based or functional assay
Numbered stars: 1 amine (or outer) side, 2 acyl side, 3 side chain; on linkers, the order of the positions; unused ones are H or OH. Square brackets hold non-standard residues; d marks the D form. Side chains are listed from the residue outwards. Ends that are not written are not given here. * marks the point of attachment. C18 diacid = O=C(O)CCCCCCCCCCCCCCCCC(=O)*; γGlu = O=C(O)[C@H](CCC(=O)[*:2])N[*:1]; Ac4c = NC1(C(=O)O)CCC1; Aib = CC(C)(N)C(=O)O

Below, each entry is followed by its recorded EC50 GlucR, CRE luciferase reporter gene assay in BHK cells result.
H[Aib]QGTFTSDLSKYLESKRAREFVQWLLKT-NH2 (not fully specified)    87.1 pM
H[Ac4c]QGTFTSDLSKYLESKRAREFVQWLLK([Gly-Ser-Glu-Gly-Ser-γGlu-γGlu-C18 diacid])T-NH2    4 pM

Task: Identify EC50 GlucR, CRE luciferase reporter gene assay in BHK cells associated with the binder H[Aib]QGTFTSDLSKYLESKRARSFVQWLLK([γGlu-γGlu-Ser-Glu-Ser-γGlu-γGlu-C18 diacid])T-NH2
Output: 68 pM

Task: Identify EC50 GlucR, CRE luciferase reporter gene assay in BHK cells associated with the binder H[Aib]QGTFTSDLSKYLDLRRAQDFVQWLLK([γGlu-γGlu-Ser-Glu-Ser-γGlu-γGlu-C18 diacid])T-NH2
Output: 7 pM

Task: Identify EC50 GlucR, CRE luciferase reporter gene assay in BHK cells associated with the binder H[Ac4c]QGTFTSDLSKYLDLKRAREFVQWLLK([Gly-Ser-Glu-Gly-Ser-γGlu-γGlu-C18 diacid])T-NH2
Output: 8 pM
